Assay: in vitro
Conditions: rat, hepatocytes
Description: Hepatic clearance in rat hepatocytes
RECORDED ENDPOINT: CLhep predicted (mL/min/kg)
Give a bare numeral; the unit mL/min/kg is implied.

**Query** I am curious: what CLhep predicted value has been reported for "CC(=O)N1CCc2c(c(-c3cccc4cc(-c5cnn(C)c5)ncc34)nn2C2CCOCC2)C1" ?
**Result** 14

====

Experiment: in vivo
Details: CD-1, mouse, iv, 1 mg/kg
Description: Volume of distribution at steady state in CD-1 mouse at 1 mg/kg, iv or 5 mg/kg, po
RECORDED ENDPOINT: Vd (L/kg)
Note: unit L/kg is implicit; provide only the numeric part.

**Query** What value of Vd has been reported for the following molecule? "CC(=O)N1CCc2c(c(-c3cccc4cc(-c5cnn(C)c5)ncc34)nn2C2CCOCC2)C1"
**Result** 1.3
